Values from paper PMC11686114

# Assayed System: T1, TRBV5-1 antigenic peptide No. 1 (TQTPRYLIKTRGQQ), biotinylated (Homo sapiens, also: biotinylated (site not given here))
# T1 construct: short form of antigenic peptide No. 1 of the TRBV5-1 segment of the human TCR beta chain; probably held on streptavidin, since its control is PBS-streptavidin (surmise); also called Ag3; peptide-biotin; source: synthetic peptide (Proteogenix)
# T1 chain: TQTPRYLIKTRGQQ
# Method Notes: ELISA; confirmatory monoclonal phage ELISA; antigens peptide alone, peptide-BSA, peptide-biotin; controls PBS, 10% BSA-PBS, PBS-streptavidin; phage dilution factors 1, 3, 9
# Conditions Used: one partner purified
Ends that are not written are not given here.
Property: ELISA signal at phage dilution factor 3

INSERT INTO assay_data (binder, measured_result) VALUES
  ('scFv clone D5 (scFv, V domains shown, tested as phage clone in the confirmatory monoclonal ELISA; source: phage display clone from the human naive scFv library LiAb-SFMAX (Proteogenix), amplified in E. coli TG1) VH: QVQLVQSGAEVKKPGASVKVSCKPSGYYFNGYDITWVRQAIGQGLEWMGWMNPNSGNRDYAHQFQGRLTMTWDTSLSTAYLELNNLQSDDTAIYYCARERVSSGLDFWGQGTLVTVSS VL: SYELTQPPSVSVSPGQTARITCSGDALPKQYAYWYQQKPGQAPVLLIYKDSERPSGIPERFSGSSSGTTVTLTISGVQAEDEADYYCQSADSSGTYVVFGGGTQLTVL', 1.9),
  ('scFv clone A2 (scFv, V domains shown, tested as phage clone in the confirmatory monoclonal ELISA; source: phage display clone from the human naive scFv library LiAb-SFMAX (Proteogenix), amplified in E. coli TG1) VH: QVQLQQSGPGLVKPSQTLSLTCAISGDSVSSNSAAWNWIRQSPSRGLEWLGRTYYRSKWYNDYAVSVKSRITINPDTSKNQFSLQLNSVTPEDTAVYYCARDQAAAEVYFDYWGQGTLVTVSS VL: NFMLTQPHSVSESPGKTVTISCTRSSGSIASNYLQWYQQRPGSAPTTVIYEDNQRPSGVPDRFSGSIDSSSNSASLTISGLKTEDEADYYCQSYDNRNHWVFGGGTQLTVL', 1.85),
  ('scFv clone C10 (scFv, V domains shown, tested as phage clone in the confirmatory monoclonal ELISA; source: phage display clone from the human naive scFv library LiAb-SFMAX (Proteogenix), amplified in E. coli TG1) VH: EVQLVQSGAEVKKPGSSVKVSCKASGGTFSSYAISWVRQAPGQGLEWMGGIIPIFGTANYAQKFQGRVTITADKSTSTAYMELSSLRSEDTAVYYCAREPLRGYSGYDFYYYGMDVWGQGTMVTVSS VL: SYELTQPHSVSGSPGETVTISCAGSGGSIASNYVQWYQQRPGSAPTTLIYEDKVRPSGVPDRFSGSIDYSSDSASLTISGLKTEDEADYYCQSADSTSTYVFGTGTKVTVL', 1.72);
